# experiment: self-splicing fitness, log relative to wild type (ln ratio); higher = more splicing; Tetrahymena group I intron in knt gene, E. coli kanamycin selection, DiMSum; sequences stand for … in CUCUCU…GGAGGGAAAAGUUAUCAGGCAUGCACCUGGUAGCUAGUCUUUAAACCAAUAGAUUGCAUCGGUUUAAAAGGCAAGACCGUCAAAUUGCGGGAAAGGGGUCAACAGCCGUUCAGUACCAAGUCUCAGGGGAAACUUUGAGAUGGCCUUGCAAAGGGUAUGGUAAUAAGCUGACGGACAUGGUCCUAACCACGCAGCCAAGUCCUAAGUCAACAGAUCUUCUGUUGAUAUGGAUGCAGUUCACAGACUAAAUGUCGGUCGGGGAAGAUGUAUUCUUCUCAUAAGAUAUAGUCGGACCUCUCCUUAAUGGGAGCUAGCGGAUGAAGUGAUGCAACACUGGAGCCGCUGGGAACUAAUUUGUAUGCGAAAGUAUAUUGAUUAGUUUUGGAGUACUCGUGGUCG;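 note: selection with 25 µg/mL kanamycin versus none on LB agar overnight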
# assay.conditions: 37 °C
Entries are grouped by self-splicing fitness (ln) into these classes: bottom end = under -2, midrange = from -2 up to -0.6, top end = -0.6 and over

Challenge: State the class of the sequence shown: ACAUAGCAAUAUUACGACCA
Response given: top end

Challenge: The entry to classify is GCCAAGCAAUAUUACGUUUC ; which class holds it?
Response given: midrange

Challenge: Class label required: CUCCAGCAAUAUUACGUAUA
Response given: midrange

Challenge: Any idea which band ACGAAGCAAUAUUACGCUCA is in?
Response given: top end

Challenge: Categorize the following entry: GAGCAGCAAUAUUACGUAAA
Response given: midrange

Challenge: Textbook exercise: identify the category of the sequence given here, GUAGAGCAAUAUUACGUCGC , according to its measured value.
Response given: top end

Challenge: Please let me know in which category the item UCCUAGCAAUAUUACGAGAU belongs.
Response given: midrange

Challenge: Each sequence maps to one class by self-splicing fitness (ln). Which class for GGUGAGCAAUAUUACGUCAU ?
Response given: bottom end

Challenge: Which of the defined bands does the recorded self-splicing fitness (ln) of CCACAGCAAUAUUACGUAGC sit within?
Response given: bottom end

Challenge: Band for CAAAAGCAAUAUUACGCCAA ?
Response given: bottom end

Challenge: Band of GUUCAGCAAUAUUACGGCGU ?
Response given: top end

Challenge: # bin lookup: classify AGGAAGCAAUAUUACGUAGG by its self-splicing fitness (ln)
Response given: bottom end

Challenge: Lab log: GUAAAGCAAUAUUACGAGGU — assign self-splicing fitness (ln) category
Response given: midrange

Challenge: In plain terms, what class is GUCUAGCAAUAUUACGCCAA ?
Response given: midrange

Challenge: Category of AGCCAGCAAUAUUACGUAUC , please.
Response given: bottom end

Challenge: Kindly identify the class of UGGGAGCAAUAUUACGGAAU .
Response given: midrange

Challenge: Form field 'band' for UAAAAGCAAUAUUACGGCUA
Response given: top end

Challenge: Lab note: sort UAGAAGCAAUAUUACGACAA into the matching self-splicing fitness (ln) band.
Response given: top end

Challenge: Please report the category associated with ACUUAGCAAUAUUACGCAGC , nothing else.
Response given: midrange

Challenge: Sort ACAUAGCAAUAUUACGAACG into one of the categories.
Response given: top end

Challenge: Class? Entry: CCCUAGCAAUAUUACGCAGC
Response given: bottom end

Challenge: Category lookup for the sequence AGGCAGCAAUAUUACGACGC
Response given: midrange

Challenge: Pick a category. Item: UAAAAGCAAUAUUACGACAA
Response given: top end

Challenge: Class (by measured self-splicing fitness (ln)) for GAAAAGCAAUAUUACGGCCG
Response given: top end

Challenge: GET /class?item= GUGUAGCAAUAUUACGCCGA
Response given: bottom end

Challenge: Would you mind sorting CUCUAGCAAUAUUACGGUGG into the appropriate category?
Response given: bottom end

Challenge: Quick check: band for AUGGAGCAAUAUUACGUUUA
Response given: midrange

Challenge: Could you place GACUAGCAAUAUUACGACGG in its proper category? Many thanks.
Response given: midrange

Challenge: Category of GGUUAGCAAUAUUACGAAUU , please.
Response given: top end

Challenge: The entry to classify is CUCGAGCAAUAUUACGCACA ; which class holds it?
Response given: midrange

Challenge: Form: Item = UUCCAGCAAUAUUACGCUUA ; Class = ?
Response given: top end
